- test.description: Emulsifying properties: hexane/water emulsions
- Format: physicochemical
- test.parameters: addition of 0.2% calcium chloride or magnesium chloride; mixture of isomers
readout: emulsifying properties on addition of salt

>>> reported_measurement("CCCCCCCCC(O)COCC(O)CO (stereo not shown) [Compound 12a]")
"not disrupted"
>>> reported_measurement("CCCCCCCCC(CO)OCC(O)CO (stereo not shown) [Compound 12b]")
"not disrupted"
